target: Cytochrome P450 2C9 (Homo sapiens)
Sequence (P11712 whole entry): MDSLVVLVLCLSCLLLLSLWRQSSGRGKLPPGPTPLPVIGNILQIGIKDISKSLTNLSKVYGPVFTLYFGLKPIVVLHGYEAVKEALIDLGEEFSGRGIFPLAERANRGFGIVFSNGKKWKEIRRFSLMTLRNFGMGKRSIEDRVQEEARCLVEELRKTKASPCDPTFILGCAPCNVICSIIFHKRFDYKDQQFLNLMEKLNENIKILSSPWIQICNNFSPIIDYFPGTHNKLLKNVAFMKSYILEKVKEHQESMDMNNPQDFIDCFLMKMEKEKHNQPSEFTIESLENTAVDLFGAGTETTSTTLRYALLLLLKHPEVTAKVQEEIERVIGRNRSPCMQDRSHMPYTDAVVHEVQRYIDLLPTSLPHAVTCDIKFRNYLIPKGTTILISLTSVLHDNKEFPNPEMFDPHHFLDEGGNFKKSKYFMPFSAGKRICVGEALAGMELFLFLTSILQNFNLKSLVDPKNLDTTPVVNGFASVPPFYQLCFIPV
observation.type: pIC50
Conceptually, pIC50 converts a concentration in mol/L into minus its log10.

Which measured pIC50 value corresponds to O=C(c1cccnc1-c1ccncc1)N1CCC(O)(Cc2ccccc2)CC1 [SOTICLESTAT] ?
4.72

---

test: Inhibition of testosterone synthesis in human NCI-H295R cells by Enzyme immunoassay; assay type: functional, cell-based
observation.type: IC50 (nM)
I only need the number, in nM, no unit after it.

Which measured IC50 value corresponds to CC(=O)N1CCN(c2ccc(OCC3COC(Cn4ccnc4)(c4ccc(Cl)cc4Cl)O3)cc2)CC1 (stereo unspecified) ?
340

---

experiment: Metabolic stability in human liver microsome assessed as clearance at 1 uM incubated for 15 to 30 mins in presence of NADPH by LC-MS/MS analysis; assay type: ADME; details: liver microsomes, time 15-30 min, read-out: CLH
Catalogue of microsomal CLint at 1 µM readings, one per entry.
I only need the number, in µL/min/mg, no unit after it.

Before answering, review these 3 worked examples.
INSERT INTO results (compound, observation_type, unit_tag, assay_value) VALUES
  ('O=C(c1ccccc1-c1ccncc1)N1CCC(O)(Cc2ccccn2)CC1', 'microsomal CLint at 1 µM', 'µL/min/mg', 22),
  ('O=C(c1ccccc1-c1ccncc1)N1CCC(O)(Cc2ccccc2)CC1', 'microsomal CLint at 1 µM', 'µL/min/mg', 120),
  ('O=C(c1ccccc1-c1ccncn1)N1CCC(O)(Cc2ccccn2)CC1', 'microsomal CLint at 1 µM', 'µL/min/mg', 9);

Which measured microsomal CLint at 1 µM value corresponds to O=C(c1cccnc1-c1ccncn1)N1CCC(O)(Cc2ccccc2)CC1 ?
17

Which measured microsomal CLint at 1 µM value corresponds to O=C(c1cccnc1-c1ccncc1)N1CCC(O)(Cc2ccccc2)CC1 [SOTICLESTAT] ?
22

Which measured microsomal CLint at 1 µM value corresponds to O=C(c1ccccc1-c1ccncn1)N1CCC(O)(Cc2ccccc2)CC1 ?
70
